Origin of measurements: ChEMBL document CHEMBL1147663

tgt: Gastrin/cholecystokinin type B receptor (Homo sapiens, UniProt P32239)
Sequence (P32239 whole entry): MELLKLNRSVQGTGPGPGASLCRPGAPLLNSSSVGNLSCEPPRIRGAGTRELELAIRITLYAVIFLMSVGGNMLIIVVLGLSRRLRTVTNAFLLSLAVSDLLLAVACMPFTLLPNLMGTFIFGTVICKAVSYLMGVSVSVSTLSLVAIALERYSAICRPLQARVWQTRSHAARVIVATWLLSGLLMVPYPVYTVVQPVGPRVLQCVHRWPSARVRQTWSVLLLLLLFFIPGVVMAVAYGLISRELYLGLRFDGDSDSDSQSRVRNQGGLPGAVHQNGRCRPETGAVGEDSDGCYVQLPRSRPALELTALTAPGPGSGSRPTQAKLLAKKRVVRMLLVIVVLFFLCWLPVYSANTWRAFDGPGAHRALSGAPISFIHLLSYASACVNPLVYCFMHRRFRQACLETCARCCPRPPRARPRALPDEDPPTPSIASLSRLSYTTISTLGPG
experiment.description: Antagonist activity at CCK2 receptor expressed in HEK293 cells assessed as accumulation of [3H]inositol phosphates by PI assay
Where a SMILES comes first, the peptide text is derived from it. [ ]: non-standard residue; d: D form. NMeNle = CCCC[C@H](NC)C(=O)O
Recorded EC50 determines the label; the label ranges are low bracket: < 0.008 µM; middle bracket: ≥ 0.008 µM and < 0.04 µM; high bracket: ≥ 0.04 µM

molecule | label.class
CCCC[C@@H](C(=O)N[C@@H](CC(=O)O)C(=O)N[C@@H](Cc1ccccc1)C(N)=O)N(C)C(=O)[C@H](Cc1c[nH]c2ccccc12)NC(=O)CNC(=O)[C@@H](Cc1ccccc1)NC(=O)[C@@H](N)Cc1ccc(O)cc1 | middle bracket
CCCC[C@H](NC(=O)[C@H](Cc1c[nH]c2ccccc12)NC(=O)CNC(=O)[C@@H](CCCC)NC(=O)[C@@H](N)Cc1ccc(O)cc1)C(=O)N[C@@H](CC(=O)O)C(=O)N[C@@H](Cc1ccccc1)C(N)=O | high bracket
CCCC[C@@H](NC(=O)[C@@H](N)Cc1ccc(O)cc1)C(=O)NCC(=O)N[C@@H](Cc1c[nH]c2ccccc12)C(=O)N(C)[C@@H](CCCC)C(=O)N[C@@H](CC(=O)O)C(=O)N[C@@H](Cc1ccccc1)C(N)=O | middle bracket
CCCC[C@@H](C(=O)N[C@@H](CC(=O)O)C(=O)N[C@@H](Cc1ccccc1)C(N)=O)N(C)C(=O)[C@@H](Cc1c[nH]c2ccccc12)NC(=O)CNC(=O)[C@@H](Cc1ccccc1)NC(=O)[C@@H](N)Cc1ccc(O)cc1 | low bracket
CCCC[C@@H](C(=O)N[C@@H](CC(=O)O)C(=O)N[C@@H](Cc1ccccc1)C(N)=O)N(C)C(=O)[C@H](Cc1c[nH]c2ccccc12)NC(=O)CNC(=O)CNC(=O)[C@@H](N)Cc1ccc(O)cc1 (H-YGGW[NMeNle]DF-NH2) | middle bracket

Switching to the query record.
Record `CCCC[C@@H](C(=O)N[C@@H](CC(=O)O)C(=O)N[C@@H](Cc1ccccc1)C(N)=O)N(C)C(=O)[C@H](Cc1c[nH]c2ccccc12)NC(=O)CNC(=O)[C@H]1CCCN1C(=O)[C@@H](N)Cc1ccc(O)cc1` — which class?
middle bracket

###

tgt: Delta-type opioid receptor (Homo sapiens, UniProt P41143)
Sequence (P41143 whole entry): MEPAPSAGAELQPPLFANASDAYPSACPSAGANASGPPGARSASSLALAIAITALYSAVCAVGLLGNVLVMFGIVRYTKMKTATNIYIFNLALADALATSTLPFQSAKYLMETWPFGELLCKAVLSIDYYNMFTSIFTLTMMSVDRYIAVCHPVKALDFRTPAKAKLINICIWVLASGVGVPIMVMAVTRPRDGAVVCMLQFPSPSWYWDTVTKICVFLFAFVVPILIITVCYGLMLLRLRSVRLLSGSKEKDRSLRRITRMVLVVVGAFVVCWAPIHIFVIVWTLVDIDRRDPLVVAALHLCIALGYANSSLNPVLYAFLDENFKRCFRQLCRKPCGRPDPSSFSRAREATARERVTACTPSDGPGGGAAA
experiment.description: Displacement of [3H]DPDPE from human delta opioid receptor expressed in HN9.10 cells
The following molecules are shown together with reported pIC50 values.
Quick note: pIC50 means taking -log10 of the concentration in moles per liter.

smiles.str | tgt | pIC50
CCCC[C@@H](C(=O)N[C@@H](CC(=O)O)C(=O)N[C@@H](Cc1ccccc1)C(N)=O)N(C)C(=O)[C@H](Cc1c[nH]c2ccccc12)NC(=O)CNC(=O)[C@@H](Cc1ccccc1)NC(=O)[C@H](Cc1ccc(O)cc1)NC(=O)[C@@H](N)CC(=O)O | Delta-type opioid receptor (Homo sapiens, UniProt P41143) | 6.26

Bench note: what pIC50 did `CCCC[C@@H](NC(=O)[C@@H](N)Cc1ccc(O)cc1)C(=O)NCC(=O)N[C@@H](Cc1c[nH]c2ccccc12)C(=O)N(C)[C@@H](CCCC)C(=O)N[C@@H](CC(=O)O)C(=O)N[C@@H](Cc1ccccc1)C(N)=O` show?
8.33

###

Target or system Gastrin/cholecystokinin type B receptor (Homo sapiens, UniProt P32239): recorded pKi listed per item.
Where a SMILES comes first, the peptide text is derived from it. [ ]: non-standard residue; d: D form. NMeNle = CCCC[C@H](NC)C(=O)O
Quick note: pKi means taking -log10 of the concentration in moles per liter.

Some solved entries appear below for comparison.
compound | pKi
CCCC[C@@H](NC(=O)[C@@H](N)Cc1ccc(O)cc1)C(=O)NCC(=O)N[C@@H](Cc1c[nH]c2ccccc12)C(=O)N(C)[C@@H](CCCC)C(=O)N[C@@H](CC(=O)O)C(=O)N[C@@H](Cc1ccccc1)C(N)=O | 8.42
CCCC[C@H](NC(=O)[C@H](Cc1c[nH]c2ccccc12)NC(=O)CNC(=O)[C@@H](CCCC)NC(=O)[C@@H](N)Cc1ccc(O)cc1)C(=O)N[C@@H](CC(=O)O)C(=O)N[C@@H](Cc1ccccc1)C(N)=O | 7.82
CCCC[C@H](NC(=O)[C@@H](Cc1c[nH]c2ccccc12)NC(=O)CNC(=O)[C@@H](CCCC)NC(=O)[C@@H](N)Cc1ccc(O)cc1)C(=O)N[C@@H](CC(=O)O)C(=O)N[C@@H](Cc1ccccc1)C(N)=O | 5.66
CCCC[C@H](NC(=O)[C@@H](Cc1c[nH]c2ccccc12)NC(=O)CNC(=O)[C@@H](C)NC(=O)[C@@H](N)Cc1ccc(O)cc1)C(=O)N[C@@H](CC(=O)O)C(=O)N[C@@H](Cc1ccccc1)C(N)=O | 5.57

Please turn your attention to the following entry.
Bench note: what pKi did CCCC[C@@H](C(=O)N[C@@H](CC(=O)O)C(=O)N[C@@H](Cc1ccccc1)C(N)=O)N(C)C(=O)[C@H](Cc1c[nH]c2ccccc12)NC(=O)CNC(=O)CNC(=O)[C@@H](N)Cc1ccc(O)cc1 (H-YGGW[NMeNle]DF-NH2) show?
8.32

###

tgt: Cholecystokinin receptor type A (Homo sapiens)
Sequence (P32238 whole entry): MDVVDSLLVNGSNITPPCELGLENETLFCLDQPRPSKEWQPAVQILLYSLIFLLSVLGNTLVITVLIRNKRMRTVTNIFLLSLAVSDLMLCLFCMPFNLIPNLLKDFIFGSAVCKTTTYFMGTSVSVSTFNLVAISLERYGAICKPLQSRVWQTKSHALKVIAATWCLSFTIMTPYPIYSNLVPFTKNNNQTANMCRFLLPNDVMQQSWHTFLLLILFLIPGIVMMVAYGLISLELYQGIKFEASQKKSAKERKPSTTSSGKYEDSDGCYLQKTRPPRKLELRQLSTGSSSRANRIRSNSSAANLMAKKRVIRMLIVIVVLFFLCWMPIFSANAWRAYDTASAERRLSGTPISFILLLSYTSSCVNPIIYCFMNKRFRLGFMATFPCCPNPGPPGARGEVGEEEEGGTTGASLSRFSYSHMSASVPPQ
experiment.description: Displacement of [125I]CCK-8(SO3) from human CCK1 receptor expressed in HEK293 cells
Assay type: cell-based
result.type: Ki (µM)
Record the value in µM, omitting the unit from your answer.

smiles.str | tgt | unit.text | Ki
CCCC[C@H](NC(=O)[C@@H](Cc1c[nH]c2ccccc12)NC(=O)CNC(=O)[C@@H](Cc1ccccc1)NC(=O)[C@@H](N)Cc1ccc(O)cc1)C(=O)N[C@@H](CC(=O)O)C(=O)N[C@@H](Cc1ccccc1)C(N)=O | Cholecystokinin receptor type A (Homo sapiens) | µM | 2

Bench note: what Ki did `CCCC[C@@H](C(=O)N[C@@H](CC(=O)O)C(=O)N[C@@H](Cc1ccccc1)C(N)=O)N(C)C(=O)[C@H](Cc1c[nH]c2ccccc12)NC(=O)CNC(=O)[C@@H](C)NC(=O)[C@@H](N)Cc1ccc(O)cc1` show?
5.1

Thanks! And `CCCC[C@@H](C(=O)N[C@@H](CC(=O)O)C(=O)N[C@@H](Cc1ccccc1)C(N)=O)N(C)C(=O)[C@H](Cc1c[nH]c2ccccc12)NC(=O)CNC(=O)[C@@H](Cc1ccccc1)NC(=O)[C@H](Cc1ccc(O)cc1)NC(=O)[C@@H](N)CC(=O)O` ?
3.2

Thanks! And `CCCC[C@H](NC(=O)[C@@H](Cc1c[nH]c2ccccc12)NC(=O)CNC(=O)[C@@H](C)NC(=O)[C@@H](N)Cc1ccc(O)cc1)C(=O)N[C@@H](CC(=O)O)C(=O)N[C@@H](Cc1ccccc1)C(N)=O` ?
6.5

###

The following molecules are shown together with reported pEC50 values.
tgt: Delta-type opioid receptor (Homo sapiens, UniProt P41143)
experiment.description: Activity against [35S]GTP-gamma-S binding to human delta opioid receptor expressed in HN9.10 cells
Quick note: pEC50 means taking -log10 of the concentration in moles per liter.

Some solved entries appear below for comparison.
smiles.str | assay.result
CCCC[C@H](NC(=O)[C@H](Cc1c[nH]c2ccccc12)NC(=O)CNC(=O)[C@@H](CCCC)NC(=O)[C@@H](N)Cc1ccc(O)cc1)C(=O)N[C@@H](CC(=O)O)C(=O)N[C@@H](Cc1ccccc1)C(N)=O | 8.35
CCCC[C@@H](C(=O)N[C@@H](CC(=O)O)C(=O)N[C@@H](Cc1ccccc1)C(N)=O)N(C)C(=O)[C@H](Cc1c[nH]c2ccccc12)NC(=O)CNC(=O)[C@H]1CCCN1C(=O)[C@@H](N)Cc1ccc(O)cc1 | 6.05

Please turn your attention to the following entry.
Bench note: what pEC50 did `CCCC[C@H](NC(=O)[C@@H](Cc1c[nH]c2ccccc12)NC(=O)CNC(=O)[C@@H](Cc1ccccc1)NC(=O)[C@@H](N)Cc1ccc(O)cc1)C(=O)N[C@@H](CC(=O)O)C(=O)N[C@@H](Cc1ccccc1)C(N)=O` show?
6.89
